Run Description: Testing of blood-brain barrier permeability
Assay type: in vivo
Test Context: mice, two minutes after intravenous administration, plasma
Catalogue of Plasma content values

>>> experimental_result("CN(C)c1ccc(-c2ccc3ccccc3n2)cc1 [Compound N-310, 2-(4-(dimethylamino)phenyl)quinoline]")
"1.0 % ID/g or ml"
>>> experimental_result("Nc1ccc(-c2ccc3ccccc3n2)cc1 [BF-170, 2-(4-(amino)phenyl)quinoline]")
"1.4 % ID/g or ml"
>>> experimental_result("CNc1ccc(-c2ccc3ccccc3n2)cc1 [BF-158, 2-(4-(methylamino)phenyl)quinoline]")
"1.8 % ID/g or ml"

Notebook: CCN(CC)c1ccc(-c2ccc3ccccc3n2)cc1 [Compound N-313, 2-(4-(diethylamino)phenyl)quinoline] , Plasma content read as 1.1 % ID/g or ml

###

Run Description: Testing of blood-brain barrier permeability
Format: in vivo
Test Context: mice, two minutes after intravenous administration, brain
Catalogue of Brain content (blood-brain barrier permeability) values

Sample records with Brain content (blood-brain barrier permeability):
>>> experimental_result("Nc1ccc(-c2ccc3ccccc3n2)cc1 [BF-170, 2-(4-(amino)phenyl)quinoline]")
"9.1 % ID/g or ml"
>>> experimental_result("CN(C)c1ccc(-c2ccc3ccccc3n2)cc1 [Compound N-310, 2-(4-(dimethylamino)phenyl)quinoline]")
"15.0 % ID/g or ml"
>>> experimental_result("CNc1ccc(-c2ccc3ccccc3n2)cc1 [BF-158, 2-(4-(methylamino)phenyl)quinoline]")
"9.7 % ID/g or ml"

--- query ---
Notebook: CCN(CC)c1ccc(-c2ccc3ccccc3n2)cc1 [Compound N-313, 2-(4-(diethylamino)phenyl)quinoline] , Brain content (blood-brain barrier permeability) read as 4.6 % ID/g or ml
